test.system: BAP-tagged AMPK α2β2γ3 (Homo sapiens, UniProt O43741+P54646+Q9UGI9)
Construct: Recombinant full-length AMPK heterotrimeric complexes α1β1γ1, α1β2γ1, α1β2γ3, α2β1γ1, α2β2γ1 and α2β2γ3 were cloned into a tricistronic vector system; 6X-His (N); made in house; host or cells: E. coli BL21-CodonPlus (DE3)-RIPL, co-expressed with BirA
Sequence (P54646 whole entry): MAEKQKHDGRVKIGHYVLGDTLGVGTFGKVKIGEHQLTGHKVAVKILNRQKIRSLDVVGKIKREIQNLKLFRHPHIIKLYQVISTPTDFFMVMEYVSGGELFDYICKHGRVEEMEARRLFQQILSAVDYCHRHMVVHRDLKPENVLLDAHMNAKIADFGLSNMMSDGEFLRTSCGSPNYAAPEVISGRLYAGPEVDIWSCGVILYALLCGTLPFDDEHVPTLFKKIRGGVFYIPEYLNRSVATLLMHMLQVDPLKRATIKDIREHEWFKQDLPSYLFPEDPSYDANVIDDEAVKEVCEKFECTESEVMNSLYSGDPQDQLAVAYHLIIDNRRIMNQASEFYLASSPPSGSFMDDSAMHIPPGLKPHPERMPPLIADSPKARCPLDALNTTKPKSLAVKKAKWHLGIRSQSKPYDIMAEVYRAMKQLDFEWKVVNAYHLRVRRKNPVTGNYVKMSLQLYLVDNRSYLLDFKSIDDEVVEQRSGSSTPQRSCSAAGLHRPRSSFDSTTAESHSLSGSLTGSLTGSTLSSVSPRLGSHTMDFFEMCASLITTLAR
Sequence (O43741 whole entry): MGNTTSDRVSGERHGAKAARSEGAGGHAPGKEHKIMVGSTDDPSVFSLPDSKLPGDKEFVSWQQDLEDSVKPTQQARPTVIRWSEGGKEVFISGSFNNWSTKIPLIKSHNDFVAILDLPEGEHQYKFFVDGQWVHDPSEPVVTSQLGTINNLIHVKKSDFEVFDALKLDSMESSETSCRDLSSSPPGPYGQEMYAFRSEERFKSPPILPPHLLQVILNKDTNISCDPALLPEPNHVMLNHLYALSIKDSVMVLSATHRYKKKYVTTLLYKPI
Sequence (Q9UGI9 whole entry): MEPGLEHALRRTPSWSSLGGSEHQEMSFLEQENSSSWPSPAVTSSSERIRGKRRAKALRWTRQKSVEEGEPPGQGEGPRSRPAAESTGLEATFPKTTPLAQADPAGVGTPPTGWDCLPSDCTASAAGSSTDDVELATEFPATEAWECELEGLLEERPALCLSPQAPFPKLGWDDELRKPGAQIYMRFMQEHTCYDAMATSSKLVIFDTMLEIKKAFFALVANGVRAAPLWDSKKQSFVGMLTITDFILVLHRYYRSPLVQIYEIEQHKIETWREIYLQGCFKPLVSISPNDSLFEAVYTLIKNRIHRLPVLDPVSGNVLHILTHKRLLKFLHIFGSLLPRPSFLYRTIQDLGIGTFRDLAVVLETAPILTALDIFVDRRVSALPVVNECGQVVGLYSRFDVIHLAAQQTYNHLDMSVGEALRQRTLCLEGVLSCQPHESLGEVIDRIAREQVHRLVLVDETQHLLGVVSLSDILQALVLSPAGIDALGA
protocol.notes: SPR direct binding (Biacore)
measurement.conditions: presence of Mg2+, cell spans KD1 and KD2, read-out: KD (single measurable binding affinity)
Protocol: SPR experiments were performed on a Biacore™ 3000 instrument (GE Healthcare). BAP-tagged AMPK isoform (α1β1γ1, α1β2γ1, α2β2γ1, α2β2γ3) was captured on to a streptavidin sensor chip to levels ranging from 4000 to 6000 RU. […] Rate parameters (kon, koff) and corresponding dissociation constant(KD=koff/kon) were determined by globally fitting all of the experimental data to a simple 1:1 interaction model using Biaeval software (GE Healthcare). […]
pKd: −log10 of the molar value.
observable: pKd

In [3]: df
Out[3]:
                                smiles_code  endpoint_result
0  Nc1ncnc2c1ncn2[C@@H]1O[C@H](COP(=O)(O)OP(=O)(O)OP(=O)(O)O)[C@@H](O)[C@H]1O             3.56
1  Nc1ncnc2c1ncn2[C@@H]1O[C@H](COP(=O)(O)OP(=O)(O)O)[C@@H](O)[C@H]1O             4.72
